# target.or.test.system: Serine/threonine-protein kinase haspin (Homo sapiens) (UniProt Q8TF76)
# Sequence (whole entry): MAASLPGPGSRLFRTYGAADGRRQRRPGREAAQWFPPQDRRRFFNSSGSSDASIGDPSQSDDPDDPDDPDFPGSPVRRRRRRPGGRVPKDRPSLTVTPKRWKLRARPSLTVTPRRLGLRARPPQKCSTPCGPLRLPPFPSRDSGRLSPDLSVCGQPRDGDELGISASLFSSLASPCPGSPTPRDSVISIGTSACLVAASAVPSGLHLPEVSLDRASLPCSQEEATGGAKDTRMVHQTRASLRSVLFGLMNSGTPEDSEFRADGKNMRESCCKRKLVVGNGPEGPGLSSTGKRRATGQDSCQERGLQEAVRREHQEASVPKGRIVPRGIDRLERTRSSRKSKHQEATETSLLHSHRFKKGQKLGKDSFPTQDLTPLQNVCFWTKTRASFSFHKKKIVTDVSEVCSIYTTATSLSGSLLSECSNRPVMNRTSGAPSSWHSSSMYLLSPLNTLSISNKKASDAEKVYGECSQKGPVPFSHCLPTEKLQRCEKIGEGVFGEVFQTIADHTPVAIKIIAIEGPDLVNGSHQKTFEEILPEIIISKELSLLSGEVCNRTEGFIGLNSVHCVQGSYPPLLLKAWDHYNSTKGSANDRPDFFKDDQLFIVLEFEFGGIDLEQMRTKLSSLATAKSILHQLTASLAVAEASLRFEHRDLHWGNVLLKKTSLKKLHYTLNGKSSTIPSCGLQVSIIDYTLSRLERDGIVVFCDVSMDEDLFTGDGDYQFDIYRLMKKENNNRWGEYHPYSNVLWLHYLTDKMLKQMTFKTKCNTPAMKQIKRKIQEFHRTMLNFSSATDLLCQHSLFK
# experiment.summary: Binding affinity to Haspin assessed as change in thermal denaturation at 10 uM by thermal stability shift assay
endpoint.name: ΔTm (°C)

>  <compound>
CC(=O)NCC1c2c(n(C)c3c(Cl)c(Cl)ccc23)C(=O)NC1(C)C (racemic)

>  <obs.value>
0.3

$$$$
>  <compound>
N#CC1c2c([nH]c3c(Cl)c(Cl)ccc23)C(=O)NC12CCCCC2 (racemic)

>  <obs.value>
0

$$$$
>  <compound>
CCN1CCC2(CC1)NC(=O)c1c(c3ccc(Cl)c(Cl)c3n1C)C2C#N (racemic)

>  <obs.value>
2.6

$$$$
>  <compound>
CC1(C)NC(=O)c2[nH]c3c(Cl)c(Cl)ccc3c2C1C#N (stereo not given)

>  <obs.value>
0.3

$$$$
>  <compound>
Cn1c2c(Cl)c(Cl)ccc2c2cn[nH]c(=O)c21

>  <obs.value>
3.2

$$$$
>  <compound>
Cn1c2c(c3ccc(Cl)c(Cl)c31)C(C#N)C1(CCCC1)NC2=O (stereo not given)

>  <obs.value>
0.1

$$$$
>  <compound>
Cn1c2c(c3ccc(Cl)c(Cl)c31)C(CN)C(C)(C)NC2=O (racemic)

>  <obs.value>
1.8

$$$$
>  <compound>
Cn1c2c(c3ccc(Cl)c(Cl)c31)C(C#N)C1(CCN(C(=O)OC(C)(C)C)CC1)NC2=O (racemic)

>  <obs.value>
0.3

$$$$

(1) Cn1c2c(c3ccccc31)C(C#N)C(C)(C)NC2=O (stereo not given)
(2) CN1CCC2(CC1)NC(=O)c1c(c3ccc(Cl)c(Cl)c3n1C)C2C#N (racemic)
Inquiry: // compare measured ΔTm, left 1 , right 2 , return larger Let me know the label of the one you choose.
Reply text: 2
(2: 3.4 °C, 1: 1.7 °C)

Cited source: ChEMBL document CHEMBL1944596
